target: UniProt P25090; experiment: FPR2 cyclic adenosine monophosphate (cAMP) assay; details: CHO cells overexpressing human FPR2; forskolin 5 μM; inhibition of cAMP production; HTRF; read-out: hFPR2 cAMP2 EC50
# note: boundary value 9 nM maps to NOT MET; EC50 below it maps to MET

[[record]]
compound = "COc1cc(F)c(-c2c(NC(=O)c3ccc(OC(F)F)cc3)c(=O)n(-c3cc(Cl)cc(C(F)(F)F)c3)n2C)c(F)c1 [Example 131]"
group = "NOT MET"

[[record]]
compound = "Cn1c(-c2c(F)cc(Cl)cc2F)c(NC(=O)c2ccc(OC(F)(F)F)cc2)c(=O)n1-c1cccc(C(C)(C)O)n1 [Example 406]"
group = "NOT MET"

[[record]]
compound = "COc1cc(F)c(-c2c(NC(=O)c3ccc(OC(F)F)cc3)c(=O)n(-c3nc(OCC4CC4)ccc3C(F)(F)F)n2C)c(F)c1 [Example 287]"
group = "NOT MET"

[[record]]
compound = "COc1cc(F)c(-c2c(NC(=O)c3ccc(OC(F)(F)F)cc3)c(=O)n(-c3ncccc3C#N)n2C)c(F)c1 [Example 56]"
group = "MET"

[[record]]
compound = "CC(C)Oc1cc(OCC(C)(C)O)nc(-n2c(=O)c(NC(=O)c3ccc(OC(F)(F)F)cc3)c(-c3c(F)cc(Cl)cc3F)n2C)c1 [Example 408]"
group = "MET"

[[record]]
compound = "CCOc1ccc(Cl)nc1-n1c(=O)c(NC(=O)c2ccc(OC(F)F)cc2)c(-c2c(F)cc(OC)cc2F)n1C [Example 248]"
group = "MET"

[[record]]
compound = "COc1cc(F)c(-c2c(NC(=O)c3ccc(OC(F)F)cc3)c(=O)n(-c3nc(N4CC(C)(O)C4)ccc3F)n2C)c(F)c1 [Example 210]"
group = "NOT MET"

[[record]]
compound = "COc1cc(F)c(-c2c(NC(=O)c3ccc(OC(F)F)cc3)c(=O)n(-c3nc(C(C)(C)O)ccc3Cl)n2C)c(F)c1 [Example 276]"
group = "MET"

[[record]]
compound = "COc1cc(OCCC(C)(C)O)nc(-n2c(=O)c(NC(=O)c3ccc(OC(F)F)cc3)c(-c3c(F)cc(OC)cc3F)n2C)c1 [Example 379]"
group = "MET"

[[record]]
compound = "COC(=O)c1cncc(-n2c(=O)c(NC(=O)c3ccc(OC(F)F)cc3)c(-c3c(F)cc(OC)cc3F)n2C)c1 [Example 128]"
group = "MET"

[[record]]
compound = "Cn1c(-c2ccc(C(F)(F)F)cc2)c(NC(=O)c2ccc(OC(F)F)cc2)c(=O)n1-c1ncccc1C(F)(F)F [Example 301]"
group = "MET"

[[record]]
compound = "COc1cc(F)c(-c2c(NC(=O)c3ccc(OC(F)F)cc3)c(=O)n(-c3nc(N4CC5(CC(O)C5)C4)ccc3Cl)n2C)c(F)c1 [Example 299]"
group = "MET"


----------
Biological target: human FPR2 (Homo sapiens, UniProt P25090)
Sequence (P25090 1-351): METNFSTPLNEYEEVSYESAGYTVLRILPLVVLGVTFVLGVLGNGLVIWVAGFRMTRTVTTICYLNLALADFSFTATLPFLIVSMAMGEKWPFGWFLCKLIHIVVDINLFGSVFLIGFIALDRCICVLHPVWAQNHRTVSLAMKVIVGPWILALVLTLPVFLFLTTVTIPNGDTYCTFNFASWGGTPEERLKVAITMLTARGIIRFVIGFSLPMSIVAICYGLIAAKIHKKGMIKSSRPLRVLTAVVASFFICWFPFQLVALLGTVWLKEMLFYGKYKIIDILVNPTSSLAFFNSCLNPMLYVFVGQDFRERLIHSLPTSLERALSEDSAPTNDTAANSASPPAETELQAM
Assay: FPR2 cyclic adenosine monophosphate (cAMP) assay
Conditions: CHO cells overexpressing human FPR2; forskolin 5 μM; inhibition of cAMP production; HTRF; read-out: hFPR2 cAMP2 EC50
# Lookup of reported EC50 keyed by entry
Measured property: EC50 (nM)

[[record]]
compound = "COc1cc(F)c(-c2c(NC(=O)c3ccc(OC(F)(F)F)cc3)c(=O)n(-c3cccc(OC(F)F)n3)n2C)c(F)c1 [Example 169]"
reported = 15

[[record]]
compound = "COc1cc(F)c(-c2c(NC(=O)c3ccc(C(F)(F)F)cc3)c(=O)n(-c3ccc(F)cc3)n2C)c(F)c1 [Example 17]"
reported = 51

[[record]]
compound = "COc1cc(N2CCN(C)CC2)nc(-n2c(=O)c(NC(=O)c3ccc(OC(F)F)cc3)c(-c3c(F)cc(OC)cc3F)n2C)c1 [Example 101]"
reported = 3

[[record]]
compound = "COc1cc(F)c(-c2c(NC(=O)c3ccc(OC(F)(F)F)cc3)c(=O)n(-c3ccc(C4CC4)cn3)n2C)c(F)c1 [Example 52]"
reported = 9


----------
molecular target: human FPR2 (Homo sapiens); test: FPR2 cyclic adenosine monophosphate (cAMP) assay; settings: CHO cells overexpressing human FPR2; forskolin 5 μM; inhibition of cAMP production; HTRF; read-out: hFPR2 cAMP2 EC50
# Lookup of reported EC50 keyed by entry
Measured property: EC50 (nM)

[[record]]
molecule = "COc1cc(F)c(-c2c(NC(=O)c3ccc(OC(F)F)cc3)c(=O)n(-c3ccc(C)cn3)n2C)c(F)c1 [Example 49]"
measure_unit = "nM"
reported = 55

[[record]]
molecule = "COc1cc(F)c(-c2c(NC(=O)c3ccc(OC(F)F)cc3)c(=O)n(-c3nc(N4C5CCC4CN(C)C5)ccc3C(F)(F)F)n2C)c(F)c1 [Example 137]"
measure_unit = "nM"
reported = 16

[[record]]
molecule = "COc1cc(Cl)cc(-n2c(=O)c(NC(=O)c3ccc(OC(F)F)cc3)c(-c3c(F)cc(OC)cc3F)n2C)c1 [Example 124]"
measure_unit = "nM"
reported = 4

[[record]]
molecule = "COc1cc(N2C3CCC2CN(C)C3)nc(-n2c(=O)c(NC(=O)c3ccc(OC(F)F)cc3)c(-c3c(F)cc(OC)cc3F)n2C)c1 [Example 105]"
measure_unit = "nM"
reported = 1


----------
Target: human FPR1 (Homo sapiens)
Sequence (P21462 1-350): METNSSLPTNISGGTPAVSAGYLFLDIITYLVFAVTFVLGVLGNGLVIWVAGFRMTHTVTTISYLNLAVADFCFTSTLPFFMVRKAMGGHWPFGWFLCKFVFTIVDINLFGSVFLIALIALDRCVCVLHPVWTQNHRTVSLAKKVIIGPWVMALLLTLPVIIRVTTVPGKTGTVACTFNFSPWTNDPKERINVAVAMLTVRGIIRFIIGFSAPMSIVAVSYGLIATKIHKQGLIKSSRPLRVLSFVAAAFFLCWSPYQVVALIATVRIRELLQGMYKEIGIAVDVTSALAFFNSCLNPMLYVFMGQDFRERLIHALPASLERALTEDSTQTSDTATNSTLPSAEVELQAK
Assay: FPR1 cyclic adenosine monophosphate (cAMP) assay
Assay type: cell-based
Conditions: CHO cells overexpressing human FPR1; forskolin 10 μM; inhibition of cAMP production; HTRF; read-out: hFPR1 cAMP2 EC50
pEC50: −log10 of the molar value.
Measured property: pEC50

[[record]]
molecule = "COc1cc(OCC(F)(F)F)nc(-n2c(=O)c(NC(=O)c3ccc(OC(F)F)cc3)c(-c3c(F)cc(OC)cc3F)n2C)c1"
measured_property = "pEC50"
readout_relation = "="
reported = 5.35

[[record]]
molecule = "COc1cc(F)c(-c2c(NC(=O)c3ccc(OC(F)F)cc3)c(=O)n(-c3cc(OCC4(C)COC4)cc(C(F)(F)F)n3)n2C)c(F)c1"
measured_property = "pEC50"
readout_relation = "="
reported = 7.03

[[record]]
molecule = "COc1cc(F)c(-c2c(NC(=O)c3ccc(OC(F)F)cc3)c(=O)n(-c3nc(N4CCN(C)CC4)ccc3C#N)n2C)c(F)c1"
measured_property = "pEC50"
readout_relation = "="
reported = 5.60

[[record]]
molecule = "COc1cc(F)c(-c2c(NC(=O)c3ccc(OC(F)F)cc3)c(=O)n(-c3cccc(N4CCOCC4)n3)n2C)c(F)c1"
measured_property = "pEC50"
readout_relation = "<"
reported = 5.00

[[record]]
molecule = "COc1cc(F)c(-c2c(NC(=O)c3ccc(OC(F)F)cc3)c(=O)n(-c3cncc(C)n3)n2C)c(F)c1"
measured_property = "pEC50"
readout_relation = "="
reported = 5.80

[[record]]
molecule = "COc1cc(F)c(-c2c(NC(=O)c3ccc(C(F)(F)F)cc3)c(=O)n(-c3ccccc3)n2C)c(F)c1"
measured_property = "pEC50"
readout_relation = "="
reported = 5.54

[[record]]
molecule = "COc1cc(F)c(-c2c(NC(=O)c3ccc(C(F)(F)F)cc3)c(=O)n(-c3ccc(F)cc3)n2C)c(F)c1"
measured_property = "pEC50"
readout_relation = "="
reported = 5.77

[[record]]
molecule = "COC(=O)[C@@H]1CCCN1c1ccc(C(F)(F)F)c(-n2c(=O)c(NC(=O)c3ccc(OC(F)F)cc3)c(-c3c(F)cc(OC)cc3F)n2C)n1"
measured_property = "pEC50"
readout_relation = "<"
reported = 5.00

[[record]]
molecule = "Cn1c(-c2c(F)cc(Cl)cc2F)c(NC(=O)c2ccc(OC(F)(F)F)cc2)c(=O)n1-c1cccc(C(C)(C)O)n1"
measured_property = "pEC50"
readout_relation = "="
reported = 5.80

[[record]]
molecule = "CCOC(=O)c1cc(F)cc(-n2c(=O)c(NC(=O)c3ccc(OC(F)F)cc3)c(-c3c(F)cc(OC)cc3F)n2C)c1"
measured_property = "pEC50"
readout_relation = "="
reported = 6.26

[[record]]
molecule = "COc1cc(F)c(-c2c(NC(=O)c3ccc(OC(F)F)cc3)c(=O)n(-c3cccc(F)c3Cl)n2C)c(F)c1"
measured_property = "pEC50"
readout_relation = "<"
reported = 5.00

[[record]]
molecule = "COc1cc(C2CCCNC2)nc(-n2c(=O)c(NC(=O)c3ccc(OC(F)F)cc3)c(-c3c(F)cc(OC)cc3F)n2C)c1 (stereo not shown) [Example 347]"
measured_property = "pEC50"
readout_relation = "<"
reported = 5.00

[[record]]
molecule = "COc1cc(F)c(-c2c(NC(=O)c3ccc(OC(F)(F)F)cc3)c(=O)n(-c3c(F)cccc3F)n2C)c(F)c1"
measured_property = "pEC50"
readout_relation = "="
reported = 5.96

